Each recorded value in this set is attributed to ChEMBL document CHEMBL1148632.

target: Replicase polyprotein 1a (Severe acute respiratory syndrome-related coronavirus); assay: Inhibition of SARS coronavirus 3C-like protease; conditions: read-out: IC50
Each item that follows carries a reported IC50.

Example results:
compound | IC50
O=C(CSc1nccc(-c2cc(-c3ccccc3Cl)no2)n1)Nc1ccc(Cl)cc1 | 15 µM
COc1cccc(-c2nc(SCC(=O)Nc3ccc([N+](=O)[O-])cc3)[nH]c(=O)c2C#N)c1 | 300 µM
O=C(CSc1nccc(-c2csc(-c3ccccc3)n2)n1)Nc1cc(Cl)cc(Cl)c1 | 3 µM
Cc1cc(C(F)(F)F)nc(SCC(=O)Nc2ccc(Cl)cc2F)n1 | 500 µM
CSc1sc(-c2nc(C)cs2)c(C)c1-c1ccnc(SCC(=O)Nc2ccccc2Cl)n1 | 12 µM

IC50 reported for this compound CCC(Sc1nc(O)c(C#N)c(-c2cccc(OC)c2)n1)C(=O)Nc1ccc(C(C)=O)cc1 (configuration not stated) : 60 µM

IC50 reported for this compound Cc1cc(O)nc(SCC(=O)Nc2ccc(Oc3ccc(Cl)cc3)cc2)n1 : 200 µM
